A collection of compounds and their measured solubility at 18 h
experiment: Solubility (18 hr vortex mixing at room temperature, filtration, HPLC); type: physicochemical; conditions: 20 °C, aqueous buffer, thermodynamic from solid; PBS; room temperature

Some compounds with known solubility at 18 h results, for comparison:
CCCC(=O)OCN(C(=O)Cc1ccccc1)c1nnc(CCCCc2ccc(NC(=O)Cc3ccccc3)nn2)s1 ... < 4 µg/mL
O=C(Cc1cccc(OC(F)(F)F)c1)Nc1ccc(CCCCc2nnc(NC(=O)[C@@H](O)c3ccccc3)s2)nn1 ... < 4 µg/mL
O=C(Cc1cccc(OC(F)(F)F)c1)Nc1ccc(CCCCc2nnc(NC(=O)Cc3ccccc3)s2)nn1 ... < 2 µg/mL
O=C(Cc1ccccc1)Nc1ccc(CCCCc2nnc(NC(=O)Cc3ccccc3)s2)nn1 ... < 2 µg/mL

Read the next record carefully.
Exam item: Fill in: solubility at 18 h of O=C(Cc1cccc(OC(F)(F)F)c1)Nc1ccc(CCCCc2nnc(NC(=O)C(O)c3cccc(Cl)c3)s2)nn1 (centres unmarked) is ___
Marked response: < 4 µg/mL

====

assay: Solubility (18 hr vortex mixing at room temperature, filtration, HPLC); format: physicochemical; details: 50 mM citrate buffer pH 2.3, 20 °C, aqueous buffer, thermodynamic from solid; 50 mM Cit pH 2.3; room temperature
Quick list: solubility at 18 h per entry.

O=C(Cc1ccccc1)Nc1ccc(CCCCc2nnc(NC(=O)Cc3ccccc3)s2)nn1 ... < 2 µg/mL

Exam item: # solubility at 18 h lookup, item CCCC(=O)OCN(C(=O)Cc1ccccc1)c1nnc(CCCCc2ccc(NC(=O)Cc3ccccc3)nn2)s1
Marked response: < 4 µg/mL

Exam item: Now consider O=C(Cc1cccc(OC(F)(F)F)c1)Nc1ccc(CCCCc2nnc(NC(=O)[C@@H](O)c3ccccc3)s2)nn1 .
Marked response: < 4 µg/mL

Exam item: Another molecule: O=C(Cc1cccc(OC(F)(F)F)c1)Nc1ccc(CCCCc2nnc(NC(=O)Cc3ccccc3)s2)nn1
Marked response: < 2 µg/mL

Exam item: How about O=C(Cc1cccc(OC(F)(F)F)c1)Nc1ccc(CCCCc2nnc(NC(=O)C(O)c3cccc(Cl)c3)s2)nn1 (centres unmarked) ?
Marked response: < 4 µg/mL

====

molecular target: recombinant form of Glutaminase 1 (GAC) (Homo sapiens, UniProt O94925); test: Recombinant Enzyme Assay (GAC coupled to GDH, NADH absorbance, no preincubation); assay type: biochemical; settings: no preincubation; read-out: GAC Delta N2 IC50 no preinc
pIC50: −log10 of the molar value.
Label satisfied when pIC50 is at or above 6; otherwise label not satisfied.

Worked examples, 5 molecules total:
O=C(Nc1nnc(CCSCCc2nnc(NC(=O)C3COc4ccccc4O3)s2)s1)C1COc2ccccc2O1 (stereo not shown) [Compound 41] ... not satisfied
O=C(Nc1nnc(CCCCc2nnc(NC(=O)c3ccnn3-c3ccccc3)s2)s1)c1ccnn1-c1ccccc1 [Compound 229] ... not satisfied
O=C(CN1CCOCC1)Nc1nnc(CCSCCc2nnc(NC(=O)CN3CCOCC3)s2)s1 [Compound 12] ... not satisfied
O=C(Nc1nnc(CCSCCc2nnc(NC(=O)C3CCCC3)s2)s1)C1CCCC1 [Compound 40] ... not satisfied
CC1(C)OCC(C(=O)Nc2nnc(CCCCc3nnc(NC(=O)C4(c5ccccc5)COC(C)(C)O4)s3)s2)(c2ccccc2)O1 (stereo not shown) [Compound 277] ... not satisfied

Exam item: Threshold query (pIC50 >= 6) on CC(=O)OC(C)(C)C(=O)Nc1nnc(CCCCc2nnc(NC(=O)C(C)(C)OC(C)=O)s2)s1 [Compound 96]
Marked response: not satisfied

Exam item: # iterate: N[C@@H](CO)C(=O)Nc1nnc(CCSCCc2nnc(NC(=O)[C@@H](N)CO)s2)s1 [Compound 137]
Marked response: not satisfied

Exam item: And the next one, O=C(Cc1ccccc1)Nc1nnc(CCSCc2nnc(NC(=O)[C@@H](O)c3ccccc3)s2)s1 [Compound 377] ?
Marked response: satisfied

Exam item: Queued: COC(=O)c1cccc(NC(=O)Nc2nnc(CCSCCc3nnc(NC(=O)Nc4cccc(C(=O)OC)c4)s3)s2)c1 [Compound 31]
Marked response: not satisfied

Exam item: Same question for CO[C@@H](C(=O)Nc1nnc(CCCCc2nnc(NC(=O)[C@H](OC)c3ccccc3)s2)s1)c1ccccc1 [Compound 147] please.
Marked response: satisfied

Exam item: Cool, now O=C(Nc1nnc(CCCCc2nnc(NC(=O)C(F)(F)F)s2)s1)C(F)(F)F [Compound 45]
Marked response: not satisfied

Exam item: Quick one: O=C(Cc1cccs1)Nc1nnc(CCSCc2nnc(NC(=O)Cc3cccs3)s2)s1 [Compound 237]
Marked response: satisfied

Exam item: Another molecule to look at: COCCC(=O)Nc1nnc(CCSCCc2nnc(NC(=O)CCOC)s2)s1 [Compound 101]
Marked response: not satisfied

====

assay: Solubility (18 hr vortex mixing at room temperature, filtration, HPLC); type: physicochemical; settings: 20 °C, oil or lipid, thermodynamic from solid; Capryol 90; room temperature
Reported solubility at 18 h values follow for various compounds
Give just the numeric value; µg/mL need not be written.

O=C(Cc1cccc(OC(F)(F)F)c1)Nc1ccc(CCCCc2nnc(NC(=O)C(O)c3cccc(Cl)c3)s2)nn1 (centres unmarked) ... 11100
O=C(Cc1cccc(OC(F)(F)F)c1)Nc1ccc(CCCCc2nnc(NC(=O)[C@@H](O)c3ccccc3)s2)nn1 ... 7410

Exam item: What does the record list as solubility at 18 h for O=C(Cc1ccccc1)Nc1ccc(CCCCc2nnc(NC(=O)Cc3ccccc3)s2)nn1 ?
Marked response: 215

Exam item: Follow-up item: CCCC(=O)OCN(C(=O)Cc1ccccc1)c1nnc(CCCCc2ccc(NC(=O)Cc3ccccc3)nn2)s1
Marked response: 13700

Exam item: And then O=C(Cc1cccc(OC(F)(F)F)c1)Nc1ccc(CCCCc2nnc(NC(=O)Cc3ccccc3)s2)nn1 , what is it?
Marked response: 1740

====

test: Solubility (18 hr vortex mixing at room temperature, filtration, HPLC); type: physicochemical; conditions: 20 °C, pH 1, simulated gastric fluid, thermodynamic from solid; 0.1M HCl; room temperature
READOUT_TYPE: solubility at 18 h

O=C(Cc1ccccc1)Nc1ccc(CCCCc2nnc(NC(=O)Cc3ccccc3)s2)nn1 ... 3 µg/mL
CCCC(=O)OCN(C(=O)Cc1ccccc1)c1nnc(CCCCc2ccc(NC(=O)Cc3ccccc3)nn2)s1 ... < 4 µg/mL
O=C(Cc1cccc(OC(F)(F)F)c1)Nc1ccc(CCCCc2nnc(NC(=O)Cc3ccccc3)s2)nn1 ... < 2 µg/mL
O=C(Cc1cccc(OC(F)(F)F)c1)Nc1ccc(CCCCc2nnc(NC(=O)C(O)c3cccc(Cl)c3)s2)nn1 (centres unmarked) ... < 4 µg/mL

Now look at this one.
Exam item: Look up solubility at 18 h: O=C(Cc1cccc(OC(F)(F)F)c1)Nc1ccc(CCCCc2nnc(NC(=O)[C@@H](O)c3ccccc3)s2)nn1
Marked response: < 4 µg/mL

====

solubility at 18 h overview
assay: Solubility (18 hr vortex mixing at room temperature, filtration, HPLC); assay type: physicochemical; conditions: 20 °C, pH 13, aqueous buffer, thermodynamic from solid; 0.1M NaOH; room temperature

O=C(Cc1ccccc1)Nc1ccc(CCCCc2nnc(NC(=O)Cc3ccccc3)s2)nn1 ... 268 µg/mL
O=C(Cc1cccc(OC(F)(F)F)c1)Nc1ccc(CCCCc2nnc(NC(=O)[C@@H](O)c3ccccc3)s2)nn1 ... 656 µg/mL
O=C(Cc1cccc(OC(F)(F)F)c1)Nc1ccc(CCCCc2nnc(NC(=O)Cc3ccccc3)s2)nn1 ... 192 µg/mL
O=C(Cc1cccc(OC(F)(F)F)c1)Nc1ccc(CCCCc2nnc(NC(=O)C(O)c3cccc(Cl)c3)s2)nn1 (centres unmarked) ... 192 µg/mL

Exam item: I would be grateful if you could share the reported solubility at 18 h for CCCC(=O)OCN(C(=O)Cc1ccccc1)c1nnc(CCCCc2ccc(NC(=O)Cc3ccccc3)nn2)s1 .
Marked response: < 4 µg/mL

====

experiment: Solubility (18 hr vortex mixing at room temperature, filtration, HPLC); type: physicochemical; details: thermodynamic from solid; water; room temperature (ca. 20 C)
READOUT_TYPE: solubility at 18 h

Past entries and their recorded results:
O=C(Cc1ccccc1)Nc1ccc(CCCCc2nnc(NC(=O)Cc3ccccc3)s2)nn1 ... < 2 µg/mL
O=C(Cc1cccc(OC(F)(F)F)c1)Nc1ccc(CCCCc2nnc(NC(=O)C(O)c3cccc(Cl)c3)s2)nn1 (centres unmarked) ... < 4 µg/mL
O=C(Cc1cccc(OC(F)(F)F)c1)Nc1ccc(CCCCc2nnc(NC(=O)Cc3ccccc3)s2)nn1 ... < 2 µg/mL
CCCC(=O)OCN(C(=O)Cc1ccccc1)c1nnc(CCCCc2ccc(NC(=O)Cc3ccccc3)nn2)s1 ... < 4 µg/mL

# ---- query molecule ----
Exam item: Consider the molecule shown here: O=C(Cc1cccc(OC(F)(F)F)c1)Nc1ccc(CCCCc2nnc(NC(=O)[C@@H](O)c3ccccc3)s2)nn1 What is its recorded solubility at 18 h?
Marked response: < 4 µg/mL
